Data credit: the supplement of paper PMC9170038

# System: MS2 coat protein
# assay.summary: apparent KD of MS2 coat protein; designed switch direction (-1 OFF switch, 1 ON switch): -1; higher = weaker reporter binding
# run.parameters: input ligand: microRNA oligo, concentration not stated

sequence.chain	apparent KD of MS2 coat protein (nM)
GCAGCAACUCUUACUAACUAAACAUGAGGAUCACCCAUGUCUCAGGAUAUGGUCUGGAUUACAGGCCAGAAGGGAGAAAGCUGC [Eli exng3 - 038] (Eterna round: R96, puzzle: Exclusion NG 3)	11.2
UAUAUAUAGUAAGGAUAUGUAUUAAUUUAAUAAACAGAAGGUACUGACAUGAGGAUCACCCAUGUUUUAGUGUGGGCAUGUAGA [JMF's solution 83] (Eterna round: R96, puzzle: Exclusion NG 1)	64.3
UUAAAUCAUGUAGGAUAUGCGUGGCGAAGCUAUGCAGAAGGACAUGAGGAUCACCCAUGUCUUUCCGUCUGCGUACAGAUGGAG [JL Eng1 1.08 mod 4] (Eterna round: R96, puzzle: Exclusion NG 1)	17.4
CUGCUGGAGCUUUGCUUUAGUCGUACAUGAGGAUCACCCAUGUAGGAUAUGGUAGGCUUUGCUUACUAGAAGGAUAGAGUGGUC [salish99_ExNG3_r04_606] (Eterna round: R96, puzzle: Exclusion NG 3)	66.6
GUCGAUGUCAAAGGAUAUCAGCACGUUUAGUGCUGAGAAGGUUGAACAUGAGGAUCACCCAUGUAGAUCAUUAACGACUUAAUU [ENG1/10-A1] (Eterna round: R96, puzzle: Exclusion NG 1)	15.7

###

# Test system: MS2 coat protein
# assay.summary: apparent KD of MS2 coat protein; designed switch direction (-1 OFF switch, 1 ON switch): -1; higher = weaker reporter binding
# run.parameters: input ligand: none
measured.endpoint: apparent KD of MS2 coat protein

sequence.chain	assayed.target	result.value
UAUUCGCAAGUGAGAUCCCACAUGAGGAUCACCCAUGUGCUCGUCUUAUAAGGUACUGUGACGAAAGUCACGGUACC [Sensor 3, v1 - 91 v23] (Eterna round: R97, puzzle: Sensor, turn-off variant 1)	MS2 coat protein	36.1 nM
AGAUAGUGCAGAGGAUAUCGUAAUAGAAAGAAUCGAGAAGGCUGACAUGAGGAUCACCCAUGUGAUGUCUUGAGACUACAUGGU [Prohibition 34 - Jieux - Exclusion NG 1] (Eterna round: R96, puzzle: Exclusion NG 1)	MS2 coat protein	83.1 nM

###

# Tested on: K4 kissing-loop RNA reporter;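 further: bound reporter read as fluorescence of individual clusters on recovered sequencing chips by microscopy, with normalized cluster intensities fitted with a binding model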
# assay.summary: apparent KD of K4 kissing-loop reporter; higher = weaker reporter binding
# run.parameters: Eterna round: R107; input ligand: FMN 200 uM
Assign Y whenever apparent KD of K4 kissing-loop reporter does not fall below 200 nM; assign N whenever it does.

sequence.chain	answer.label
UUUCUUUUAAUAACACUUUAUACAACUGAAGGAGCGACAAUAAAGUCAGGUAGGUCGCAGAAUUAAUGAGUGAUGUUCAUAUUUA [JR_ExcArginiA_Sub012]	N
AUAUCGGUUGAGAGUGAUGUUCCUUGUGUUCGAGGACCGGUACGGCCGCCACUCGGGUAGAAAAUAAAAGAUGUGUUUGAUUUUU [BDazzled - #14 SS Tryptophan A]	Y
GAUAUAGUGAUGUUAUAUGGGAAGGAGUUACGAGGACCGGUACGGCCGCCACUCGAAACGAGUGAGGAUUUGGGAGAUUGGGUUU [SSTryptA.R]	Y
AAAAUAGAUCAGUGAUGUUGGUGUCUGGAUACCAGCGAUAAUAGUCGCCCUUGGCAGCCAUGGACGUACAAAAUAAGUACGUCCU [MatMod 20 - Jieux - Same State - Theophylline A]	Y
CCGCCGGUCGGAAGGAGCGCACGCCAGAGUGAUGUUCUGGCGCAGGCAUUUAGUGCCCGCGUGCAGGUAGGUCGCCGAUUCUGGC [Arlaaa]	Y
AAAUUCUUUUUUUUAUUUAACUUUUCAGAAGGAGCGUGGUAGUACACAGGUAGGUCGCUGAAUAUAAGACUAGUGAUGUUAGUUA [JR_SSArginiA_Sub009]	N
